Recorded melting point values for a group of molecules are listed next.

Problem: Can you look up the measured melting point of Cc1c2c(=O)n(-c3nc4ccccc4s3)n(Cc3ccccc3)c2cc(=O)n1Cc1ccc2c(c1)OCO2 [Compound 10] for me?
Solution: 139.9 to 143.6 °C

Problem: Report melting point for COc1ccc([C@H]2CC(=O)Nc3c(S(=O)(=O)c4ccccc4)csc32)cc1OC1CCCC1 [Compound 2] please.
Solution: 113 to 116.7 °C

Problem: I would be grateful if you could share the reported melting point for CC(C)OC(=O)c1[nH]c2cc(Nc3ccc(F)cc3F)ccc2c1COCc1ccccc1F [Compound 19b] .
Solution: 171.8 to 175.3 °C

Problem: Which melting point value is on record for COc1ccc(Nc2ccc3c(COCc4ccccc4F)c(C(=O)OC(C)C)[nH]c3c2)cc1F [Compound 19a] ?
Solution: 141.2 to 144.5 °C

====

Test system: MT-4 cells
Test: Cytotoxicity assay (MTT) on MT-4 cells
Type: cell-based, human
Settings: five days, read-out: CC50, concentration that inhibits the proliferation of MT-4 cells by 50%
Here the recorded CC50 is given for each entry.

Known CC50 results, listed for orientation:
Compound	Quantity Measured	Value Reported
CC(C)OC(=O)c1[nH]c2cc(Br)ccc2c1COCc1ccccc1F	CC50	45.3 µM
COc1ccc(Nc2ccc3c(COCc4ccccc4F)c(C(=O)OC(C)C)[nH]c3c2)cc1F [Compound 19a]	CC50	37.6 µM

Turning now to a further record.
Problem: Form entry - test system: MT-4 cells; read-out: CC50; compound: CC(C)OC(=O)c1[nH]c2cc(Nc3ccc(F)cc3F)ccc2c1COCc1ccccc1F [Compound 19b]
Solution: 29.4 µM

====

As shown below, each of these molecules has a reported IC50 value.
Biological target: HIV-1 integrase (Human immunodeficiency virus type 1 group M subtype B)
Construct: purchased Abnova
Assay: Strand transfer inhibition assay (HIV-1 integrase assay kit)
Format: biochemical
Details: IC50, concentration required to inhibit the in vitro strand-transfer step of integrase by 50%, average of three independent experiments
Give the value, in units of µM, as a plain number.

Problem: Item: Clc1ccc2c(c1)C(c1ccccc1Cl)=NCc1nnc(CSCc3ccccc3)n1-2 Test system: HIV-1 integrase (Human immunodeficiency virus type 1 group M subtype B) Read-out: IC50 Value: ?
Solution: 47.4

Problem: Checklist item: IC50 tested on HIV-1 integrase (Human immunodeficiency virus type 1 group M subtype B), entry CC(C)OC(=O)c1[nH]c2cc(Br)ccc2c1COCc1ccccc1F , value?
Solution: 1.92

Problem: Fill in the recorded IC50 for this molecule, with HIV-1 integrase (Human immunodeficiency virus type 1 group M subtype B) as test system: CC(C)OC(=O)c1[nH]c2cc(Br)ccc2c1COCc1ccc(C(F)(F)F)cc1
Solution: 2.34

====

Assay: Cytotoxicity assay (MTT) on MT-4 cells
Format: cell-based, human
Settings: human, five days, read-out: CC50, concentration that inhibits the proliferation of MT-4 cells by 50%
Below: a set of entries, each annotated with reported CC50 at 5 days.

Illustrative cases are given below, each with its answer.
Compound	Quantity Measured	Value Reported
O=C(O)c1[nH]c2cc(Br)ccc2c1COCc1ccccc1F	CC50 at 5 days	> 80 µM
O=C(O)c1[nH]c2cc(Nc3ccc(F)cc3F)ccc2c1COCc1ccccc1F [Compound 20b]	CC50 at 5 days	> 80 µM
O=C(O)c1[nH]c2cc(Nc3ccc(F)cc3F)ccc2c1COCc1ccc(C(F)(F)F)cc1 [Compound 17b]	CC50 at 5 days	> 80 µM

Problem: Using the record for CC(C)OC(=O)c1[nH]c2cc(Nc3ccc(F)cc3F)ccc2c1COCc1ccc(C(F)(F)F)cc1 [Compound 16b] , report its CC50 at 5 days.
Solution: > 80 µM

Problem: Consider the compound COc1ccc(Nc2ccc3c(COCc4ccc(C(F)(F)F)cc4)c(C(=O)OC(C)C)[nH]c3c2)cc1F [Compound 16a] and give its measured CC50 at 5 days.
Solution: > 80 µM

Problem: Given the entry CC(C)OC(=O)c1[nH]c2cc(Nc3ccc(F)cc3F)ccc2c1COCc1ccccc1F [Compound 19b] , report its measured CC50 at 5 days.
Solution: > 29 µM

Problem: Entry COc1ccc(Nc2ccc3c(COCc4ccccc4F)c(C(=O)OC(C)C)[nH]c3c2)cc1F [Compound 19a] has what CC50 at 5 days?
Solution: > 29 µM

Problem: Can you look up the measured CC50 at 5 days of COc1ccc(Nc2ccc3c(COCc4ccc(C(F)(F)F)cc4)c(C(=O)O)[nH]c3c2)cc1F [Compound 17a] for me?
Solution: > 80 µM

Problem: Quick check: CC50 at 5 days of Cc1nnc(C(=O)NC(C)(C)c2nc(C(=O)NCc3ccc(F)cc3)c(O)c(=O)n2C)o1 [RAL, raltegravir, reference compound] ?
Solution: > 80 µM

Problem: Which CC50 at 5 days value belongs to CC(C)OC(=O)c1[nH]c2cc(Br)ccc2c1COCc1ccc(C(F)(F)F)cc1 ?
Solution: > 80 µM

Problem: Look at this compound and give its reported CC50 at 5 days. CC(C)OC(=O)c1[nH]c2cc(Br)ccc2c1COCc1ccccc1F
Solution: > 29 µM

Problem: Looking for the measured CC50 at 5 days of COc1ccc(Nc2ccc3c(COCc4ccccc4F)c(C(=O)O)[nH]c3c2)cc1F [Compound 20a] , can you help?
Solution: > 80 µM

====

Molecular target: HIV-1 integrase (Human immunodeficiency virus type 1 group M subtype B)
Construct: purchased Abnova
Assay: Strand transfer inhibition assay (HIV-1 integrase assay kit)
Type: biochemical
Settings: average of three independent experiments; read-out: IC50, concentration required to inhibit the in vitro strand-transfer step of integrase by 50%
Quantity Measured: IC50 (µM)
Give the value in µM but do not write µM after it.

Molecule	Quantity Measured	Value Reported
COc1ccc(Nc2ccc3c(COCc4ccccc4F)c(C(=O)OC(C)C)[nH]c3c2)cc1F [Compound 19a]	IC50	1.05
COc1ccc(Nc2ccc3c(COCc4ccc(C(F)(F)F)cc4)c(C(=O)O)[nH]c3c2)cc1F [Compound 17a]	IC50	0.93
Cc1c2c(=O)n(-c3nc4ccccc4s3)n(Cc3ccccc3)c2cc(=O)n1Cc1ccc2c(c1)OCO2 [Compound 10]	IC50	22.3

Problem: Any idea what IC50 came out for COc1ccc(Nc2ccc3c(COCc4ccccc4F)c(C(=O)O)[nH]c3c2)cc1F [Compound 20a] on HIV-1 integrase (Human immunodeficiency virus type 1 group M subtype B)?
Solution: 0.13

Problem: Tell me reported IC50 for O=c1c2cc(N3CCOCC3)ccc2nc(SCc2cc(=O)n3cc(Cl)ccc3n2)n1Cc1ccc2c(c1)OCO2 [Compound 9] , tested with HIV-1 integrase (Human immunodeficiency virus type 1 group M subtype B).
Solution: 32.8

Problem: // map COc1ccc(Nc2ccc3c(COCc4ccc(C(F)(F)F)cc4)c(C(=O)OC(C)C)[nH]c3c2)cc1F [Compound 16a] to recorded IC50 (system: HIV-1 integrase (Human immunodeficiency virus type 1 group M subtype B))
Solution: 3.47

Problem: Short answer please: IC50, HIV-1 integrase (Human immunodeficiency virus type 1 group M subtype B), entry O=C(NC1CCCC1)c1ccc2c(=O)n(Cc3ccco3)c(=O)n(Cc3cccc([N+](=O)[O-])c3)c2c1 [Compound 6]
Solution: 22.6

Problem: Checklist item: IC50 tested on HIV-1 integrase (Human immunodeficiency virus type 1 group M subtype B), entry COc1cc(OC)c([C@H]2c3c(oc4ccc(Cl)cc4c3=O)C(=O)N2c2cc(C)on2)cc1OC [Compound 4] , value?
Solution: 18.5

Problem: Lab note: need IC50 with HIV-1 integrase (Human immunodeficiency virus type 1 group M subtype B) for entry O=C(O)c1[nH]c2cc(Br)ccc2c1COCc1ccccc1F [Compound 21] , please look it up.
Solution: 6.85

Problem: Query the reported IC50 for HIV-1 integrase (Human immunodeficiency virus type 1 group M subtype B); item: Cc1ccc(CNC(=O)CCS(=O)(=O)c2ccc3c(c2)CCN3C(=O)C2CC2)cc1 [Compound 1]
Solution: 39.1

Problem: Could you share what IC50 was measured for CC(C)OC(=O)c1[nH]c2cc(Nc3ccc(F)cc3F)ccc2c1COCc1ccc(C(F)(F)F)cc1 [Compound 16b] , tested on HIV-1 integrase (Human immunodeficiency virus type 1 group M subtype B)?
Solution: 1.06

Problem: Quick check: IC50 on HIV-1 integrase (Human immunodeficiency virus type 1 group M subtype B), item O=C(O)c1[nH]c2cc(Nc3ccc(F)cc3F)ccc2c1COCc1ccccc1F [Compound 20b] ?
Solution: 0.64

Problem: Lab note: need IC50 for COc1ccc2[nH]c(C(=O)O)c(CC(=O)O)c2c1 [Compound 3] on HIV-1 integrase (Human immunodeficiency virus type 1 group M subtype B), anyone have it?
Solution: 12.4

Problem: # value lookup — system HIV-1 integrase (Human immunodeficiency virus type 1 group M subtype B), readout IC50, item CC(C)OC(=O)c1[nH]c2cc(Nc3ccc(F)cc3F)ccc2c1COCc1ccccc1F [Compound 19b]
Solution: 1.7

Problem: Report IC50 for O=C(/C=C/c1ccc2c(c1)OCO2)C[C@@]1(O)C(=O)N(Cc2ccc(Cl)cc2)c2ccccc21 [Compound 7] tested on HIV-1 integrase (Human immunodeficiency virus type 1 group M subtype B).
Solution: 21.4

Problem: GET /values?readout=IC50&system=HIV-1 integrase (Human immunodeficiency virus type 1 group M subtype B)&item= COc1ccc([C@H]2CC(=O)Nc3c(S(=O)(=O)c4ccccc4)csc32)cc1OC1CCCC1 [Compound 2]
Solution: 33

Problem: I'm curious: which IC50 was measured for O=C(NCc1ccc(F)cc1)c1coc(CN(Cc2ccc3c(c2)OCO3)Cc2ccc3c(c2)OCO3)n1 [Compound 8] tested on HIV-1 integrase (Human immunodeficiency virus type 1 group M subtype B)?
Solution: 28.2

Problem: HIV-1 integrase (Human immunodeficiency virus type 1 group M subtype B) / IC50 / O=C(O)c1[nH]c2cc(Nc3ccc(F)cc3F)ccc2c1COCc1ccc(C(F)(F)F)cc1 [Compound 17b] : value?
Solution: 0.39
